Cited source: patent US5607937A

- assay explanation: plasma concentration in rats after rectal administration
- Assay type: in vivo
- conditions: plasma; rat, rectal 20 mg/kg, 60 min

smiles notation	concentration at 1 h (ng/mL)
CN(C)C(=O)N1CCN(C(=O)[C@H](Cc2cccc(C(=N)N)c2)NS(=O)(=O)c2ccc3ccccc3c2)CC1	449
Cl.Cl.N=C(N)c1cccc(C[C@H](NS(=O)(=O)c2ccc3ccccc3c2)C(=O)N2CCN(CCO)CC2)c1	3800
CS(=O)(=O)N1CCN(C(=O)[C@H](Cc2cccc(C(=N)N)c2)NS(=O)(=O)c2ccc3ccccc3c2)CC1.Cl	958

----------
Listing: pKi of selected compounds
- target: thrombin (Bos taurus, UniProt P00735)
- assay explanation: biochemical
pKi: −log10 of the molar value.
readout kind: pKi

compound	readout kind	data value
COc1cc(C)c(S(=O)(=O)N[C@@H](Cc2cccc(C(=N)N)c2)C(=O)N2CCN(S(C)(=O)=O)CC2)c(C)c1C	pKi	7.70
CC(=O)N1CCN(C(=O)C(Cc2cccc(C(=N)N)c2)NS(=O)(=O)c2c(C)c(C)c3c(c2C)CCC(C)(C)O3)CC1 (stereo not drawn)	pKi	7.13
COc1cc(C)c(S(=O)(=O)N2CCN(C(=O)C(Cc3cccc(C(=N)N)c3)NS(=O)(=O)c3ccc4ccccc4c3)CC2)c(C)c1C (stereo not drawn)	pKi	7.30

----------
This section presents molecules with their documented concentration at 1 h values.
- assay explanation: concentration in rat plasma in the anticoagulant study after rectal application
- Format: in vivo
- conditions: plasma, rectal 20 mg/kg, 60 min
readout kind: concentration at 1 h (ng/mL)

molecule	readout kind	unit of measurement	data value
CC(=O)N1CCN(C(=O)[C@H](Cc2cccc(C(=N)N)c2)NS(=O)(=O)c2ccc3ccccc3c2)CC1.Cl [Compound 2]	concentration at 1 h	ng/mL	2090
CS(=O)(=O)N1CCN(C(=O)[C@H](Cc2cccc(C(=N)N)c2)NS(=O)(=O)c2ccc3ccccc3c2)CC1.Cl [Compound 5]	concentration at 1 h	ng/mL	983

----------
- assay explanation: plasma concentration in rats after rectal administration
- Type: in vivo
- conditions: plasma; rat, rectal 100 mg/kg, 30 min

molecule	unit of measurement	concentration at 0.5 h
CC(=O)N1CCN(C(=O)C(Cc2cccc(C(=N)N)c2)NS(=O)(=O)c2ccc3ccccc3c2)CC1 (stereo not drawn) [Compound 1]	ng/mL	31400
CCOC(=O)N1CCN(C(=O)C(Cc2cccc(C(=N)N)c2)NS(=O)(=O)c2ccc3ccccc3c2)CC1 (racemic) [X, reference compound]	ng/mL	3260
CC(=O)N1CCN(C(=O)[C@H](Cc2cccc(C(=N)N)c2)NS(=O)(=O)c2ccc3ccccc3c2)CC1.Cl [Compound 2]	ng/mL	32400

----------
- target: tPA (Homo sapiens)
- Sequence (P00750 36-562): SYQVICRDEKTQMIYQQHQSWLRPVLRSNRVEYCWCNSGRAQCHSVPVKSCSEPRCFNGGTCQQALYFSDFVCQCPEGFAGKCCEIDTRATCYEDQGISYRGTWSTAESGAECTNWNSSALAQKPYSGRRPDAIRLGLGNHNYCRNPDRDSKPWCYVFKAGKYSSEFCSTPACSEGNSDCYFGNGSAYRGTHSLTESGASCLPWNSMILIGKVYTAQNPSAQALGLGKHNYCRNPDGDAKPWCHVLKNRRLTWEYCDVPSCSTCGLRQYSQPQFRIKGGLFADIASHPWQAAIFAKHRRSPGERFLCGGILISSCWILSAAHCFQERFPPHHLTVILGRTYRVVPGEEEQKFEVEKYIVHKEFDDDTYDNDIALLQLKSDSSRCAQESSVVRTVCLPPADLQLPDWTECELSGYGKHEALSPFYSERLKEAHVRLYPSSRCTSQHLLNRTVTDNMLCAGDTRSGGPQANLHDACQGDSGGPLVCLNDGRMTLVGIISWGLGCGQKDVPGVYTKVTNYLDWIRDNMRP
- assay explanation: inhibition of tPA, dissociation constant Ki
pKi: −log10 of the molar value.
Recorded pKi, one value per entry.

molecule	pKi
NCc1cccc(CC(NS(=O)(=O)c2ccc3ccccc3c2)C(=O)N2CCN(c3ccccn3)CC2)c1 (stereo not drawn) [Ame 2-Naph 2-Pyl]	< 3.00
CC(=O)N1CCN(C(=O)C(Cc2cccc(C(=N)N)c2)NS(=O)(=O)c2c(C)c(C)c3c(c2C)CCC(C)(C)O3)CC1 (stereo not drawn) [AMD Pmc Ac]	3.17
COCC(=O)N1CCN(C(=O)C(Cc2cccc(C(=N)N)c2)NS(=O)(=O)c2ccc3ccccc3c2)CC1 (stereo not drawn) [AMD 2-Naph COCH2 OMe]	< 3.00
N=C(N)c1cccc(CC(NS(=O)(=O)c2ccc3ccccc3c2)C(=O)N2CCN(C=O)CC2)c1 (stereo not drawn) [AMD 2-Naph For]	< 3.00
CC(=O)N1CCN(C(=O)C(Cc2cccc(C(=N)N)c2)NS(=O)(=O)c2ccc3ccccc3c2)CC1 (stereo not drawn) [Compound 1]	< 3.00
CC(=O)N1CCN(C(=O)C(Cc2cccc(C(=N)N)c2)NS(=O)(=O)c2ccc3c(c2)C(=O)c2ccccc2C3=O)CC1 (stereo not drawn) [Compound 4]	< 3.00
N=C(N)c1cccc(CC(NS(=O)(=O)c2ccc3ccccc3c2)C(=O)N2CCN(c3ccccn3)CC2)c1 (stereo not drawn) [AMD 2-Naph 2-Pyl]	< 3.00
CC(C)C(=O)N1CCN(C(=O)C(Cc2cccc(C(=N)N)c2)NS(=O)(=O)c2ccc3ccccc3c2)CC1 (stereo not drawn) [AMD 2-Naph COCH(Me)2]	3.36
N=C(N)c1cccc(CC(NS(=O)(=O)c2ccc3ccccc3c2)C(=O)N2CCN(C(=O)C3CCCCC3)CC2)c1 (stereo not drawn) [AMD 2-Naph CO-cHex]	< 3.00
N=C(N)c1cccc(CC(NS(=O)(=O)c2ccc3c(c2)C(=O)c2ccccc2C3=O)C(=O)N2CCN(C=O)CC2)c1 (stereo not drawn) [AMD AC For]	4.08
N=C(N)c1cccc(CC(NS(=O)(=O)c2ccc3ccccc3c2)C(=O)N2CCN(C(=O)C3CC3)CC2)c1 (stereo not drawn) [AMD 2-Naph CO-cPr]	3.77
COc1cc(C)c(S(=O)(=O)N2CCN(C(=O)C(Cc3cccc(C(=N)N)c3)NS(=O)(=O)c3ccc4ccccc4c3)CC2)c(C)c1C (stereo not drawn) [AMD 2-Naph SO2 -Mtr]	< 3.00
CN(C)C(=O)N1CCN(C(=O)[C@H](Cc2cccc(C(=N)N)c2)NS(=O)(=O)c2ccc3ccccc3c2)CC1 [Compound 6]	< 3.00
N=C(N)c1cccc(CC(NS(=O)(=O)c2ccc3ccccc3c2)C(=O)N2CCN(C(=O)Cc3cccs3)CC2)c1 (stereo not drawn) [AMD 2-Naph drawing 11]	3.77
N=C(N)c1cccc(CC(NS(=O)(=O)c2ccc3ccccc3c2)C(=O)N2CCN(c3ncccn3)CC2)c1 (stereo not drawn) [AMD 2-Naph 2-Pym]	3.49
Cc1c(C)c(S(=O)(=O)NC(Cc2cccc(C(=N)N)c2)C(=O)N2CCN(CCO)CC2)c(C)c2c1OC(C)(C)CC2 (stereo not drawn) [AMD Pmc EtOH]	< 3.00
N=C(N)c1cccc(CC(NS(=O)(=O)c2ccc3ccccc3c2)C(=O)N2CCN(S(=O)(=O)c3ccccc3)CC2)c1 (stereo not drawn) [AMD 2-Naph SO2 -Ph]	< 3.00
CS(=O)(=O)N1CCN(C(=O)C(Cc2cccc(C(=N)N)c2)NS(=O)(=O)c2cccc3ccccc23)CC1 (stereo not drawn) [Compound 11]	< 3.00
Cc1ccc(S(=O)(=O)N2CCN(C(=O)C(Cc3cccc(C(=N)N)c3)NS(=O)(=O)c3ccc4ccccc4c3)CC2)cc1 (stereo not drawn) [AMD 2-Naph SO2 -Tol]	< 3.00
CS(=O)(=O)N1CCN(C(=O)C(Cc2cccc(C(=N)N)c2)NS(=O)(=O)c2ccc3ccccc3c2)CC1 (stereo not drawn) [AMD 2-Naph SO2 Me]	< 3.00
COc1cc(C)c(S(=O)(=O)N[C@@H](Cc2cccc(C(=N)N)c2)C(=O)N2CCN(S(C)(=O)=O)CC2)c(C)c1C [Compound 9]	3.22
